# assayTarget: Ecm22 (UniProt Q05958)
# Sequence: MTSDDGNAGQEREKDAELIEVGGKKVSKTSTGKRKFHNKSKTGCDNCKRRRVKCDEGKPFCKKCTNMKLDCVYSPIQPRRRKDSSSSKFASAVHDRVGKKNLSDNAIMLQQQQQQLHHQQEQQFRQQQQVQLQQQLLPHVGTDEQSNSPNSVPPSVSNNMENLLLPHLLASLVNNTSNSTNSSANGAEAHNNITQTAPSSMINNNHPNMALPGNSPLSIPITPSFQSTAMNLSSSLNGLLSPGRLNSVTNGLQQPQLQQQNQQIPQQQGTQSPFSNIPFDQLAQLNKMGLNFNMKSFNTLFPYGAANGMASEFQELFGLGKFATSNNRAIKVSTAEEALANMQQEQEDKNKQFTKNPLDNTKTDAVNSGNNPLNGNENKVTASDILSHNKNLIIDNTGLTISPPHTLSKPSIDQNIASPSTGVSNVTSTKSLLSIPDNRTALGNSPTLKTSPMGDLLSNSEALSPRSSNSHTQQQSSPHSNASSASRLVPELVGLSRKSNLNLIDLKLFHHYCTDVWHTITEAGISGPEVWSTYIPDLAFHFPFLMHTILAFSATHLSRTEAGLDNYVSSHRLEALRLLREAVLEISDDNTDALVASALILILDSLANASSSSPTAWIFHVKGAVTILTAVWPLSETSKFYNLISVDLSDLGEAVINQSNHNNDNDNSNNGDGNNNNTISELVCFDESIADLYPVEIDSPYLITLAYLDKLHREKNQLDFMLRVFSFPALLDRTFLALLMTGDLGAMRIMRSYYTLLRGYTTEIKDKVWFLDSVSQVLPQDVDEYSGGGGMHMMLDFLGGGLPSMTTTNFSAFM
# test: PBM E-score (8-mer binding enrichment) (E-score (-0.5 to 0.5)); higher = stronger / more preferred TF binding
# measurementContext: protein concentration: 200 nM; construct: GST-full length
In all, about 33,000 sequences were measured (“E-score (-0.5 to 0.5)”: median about -0.041, highest 2% from about 0.37 on). The list comes from a sample in which the highest values are over-represented; it also holds close analogues and randomly drawn sequences.
So basically, the class depends on measured PBM E-score, and the ranges are lower (below 0.09), middle (0.09 to below 0.4), upper (0.4 or more)

The examples below pair each entry with its known result.
>>> assignedclass("AAACCACT")
"lower"
>>> assignedclass("GCTAACGA")
"middle"
>>> assignedclass("AGCATACT")
"lower"
>>> assignedclass("GAGTCGGA")
"lower"
>>> assignedclass("CAGTCGGA")
"lower"
>>> assignedclass("AAAATACA")
"lower"

Assign a category based on measured PBM E-score for AAGTCGTG and give only the class name.
lower

---

Catalogue of PBM E-score readings, one per entry.
# assayTarget: Ecm22 (UniProt Q05958)
# Sequence: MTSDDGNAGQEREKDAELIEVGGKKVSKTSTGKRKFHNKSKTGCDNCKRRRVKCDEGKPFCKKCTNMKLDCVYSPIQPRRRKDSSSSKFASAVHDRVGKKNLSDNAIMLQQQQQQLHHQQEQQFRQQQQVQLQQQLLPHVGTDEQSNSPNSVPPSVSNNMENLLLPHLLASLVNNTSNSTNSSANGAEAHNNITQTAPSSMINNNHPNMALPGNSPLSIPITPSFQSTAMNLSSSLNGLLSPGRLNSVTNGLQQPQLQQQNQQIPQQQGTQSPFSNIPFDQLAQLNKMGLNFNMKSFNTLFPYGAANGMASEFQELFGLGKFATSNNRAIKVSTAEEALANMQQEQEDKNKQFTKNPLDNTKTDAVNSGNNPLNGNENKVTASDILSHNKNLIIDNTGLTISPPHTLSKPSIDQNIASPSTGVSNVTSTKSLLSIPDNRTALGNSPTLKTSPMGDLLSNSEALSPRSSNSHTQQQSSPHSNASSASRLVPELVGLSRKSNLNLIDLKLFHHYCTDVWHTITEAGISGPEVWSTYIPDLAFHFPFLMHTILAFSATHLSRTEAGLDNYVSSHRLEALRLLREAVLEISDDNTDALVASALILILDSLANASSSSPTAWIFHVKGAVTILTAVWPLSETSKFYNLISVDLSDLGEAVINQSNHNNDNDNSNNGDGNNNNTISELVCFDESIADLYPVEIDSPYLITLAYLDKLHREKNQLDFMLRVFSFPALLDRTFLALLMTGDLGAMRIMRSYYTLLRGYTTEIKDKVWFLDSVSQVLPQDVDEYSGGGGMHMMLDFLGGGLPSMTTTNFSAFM
# test: PBM E-score (8-mer binding enrichment) (E-score (-0.5 to 0.5)); higher = stronger / more preferred TF binding
# measurementContext: protein concentration: 200 nM; construct: GST-full length
Whole data set: some 33,000 sequences, median “E-score (-0.5 to 0.5)” near -0.041, cut for the highest 2% near 0.37. This is one part of a sample in which the highest values are shown more often than they occur.
Just the number.

# get_value(readout='PBM E-score', item= GCGAGAGC )
0.182

Further, for CGCACGTC ?
0.00508

Further, for GGGGCTAC ?
-0.0133

Further, for CACCCCAG ?
-0.0849
